conditions: in water, 318.25 K

{"Compound": "O=P1(Oc2ccccc2)OCC2(CO1)COP(=O)(Oc1ccccc1)OC2 (stereo unspecified)", "solubility (mole fraction)": 0.0005}

---

details: in acetonitrile, 333.15 K

{"Structure String": "O=C(O)CCP(=O)(O)c1ccccc1", "solubility (mole fraction)": 0.00161}

---

details: in acetic acid, 318.17 K

{"Structure String": "O=C(O)CCP(=O)(O)c1ccccc1", "solubility (mole fraction)": 0.0182}

---

details: in ethanol, 318.17 K
Measured Parameter: solubility (mole fraction)

{"Structure String": "COc1ccc(P(c2ccc(OC)cc2)c2ccc(OC)cc2)cc1", "Measured Parameter": "solubility (mole fraction)", "Number": 0.00202}
